- assay.explanation: chemical genetic growth profiling, strain panel (AID 1159580);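 note: tested at 20 µM; growth read once vehicle control cultures reached saturation at 30 °C; 1 = growth at the plate median or of vehicle wells; lower values mean less growth of the strain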
- condition.description: S. cerevisiae deletion strains, growth OD, locus YGR135W, strain pre9, stronger effect = lower value
The campaign covered roughly 5,500 compounds. About 2,000 (36%) were called active. About 18% were inconclusive and are not listed. The list shows a part of the results.
Form field: normalized growth (one value per entry).
measured.attribute: normalized growth

{"molecule": "CC(=O)Nc1ccc(OCC(O)CNC(C)C)cc1 (configuration not stated)", "value": "0.996 (inactive)"}
{"molecule": "NC(Cc1c[nH]c2ccccc12)C(=O)O (configuration not stated)", "value": "0.993 (inactive)"}
{"molecule": "CC1C(=O)OC2C1CCC1(C)C=CC(=O)C3(C)OC213 (configuration not stated)", "value": "0.976 (inactive)"}
{"molecule": "CC(=O)OC1CC[C@@]2(C)C(CC[C@]3(C)C2CCC2C4CC(C)(C)CCC4(C(=O)O)CC[C@]23C)C1(C)C (some centres not stated)", "value": "0.972 (inactive)"}
{"molecule": "CC(C)CC(N(C)C)C1(c2ccc(Cl)cc2)CCC1 (configuration not stated)", "value": "1.02 (inactive)"}
{"molecule": "C[C@@H]1OC(O[C@H]2[C@H](O)[C@@H](O)[C@H](OC[C@H]3O[C@@H](OC(=O)[C@]45CCC(C)(C)CC4C4=CCC6[C@@]7(C)CC[C@H](OC8OC[C@H](O)[C@H](O)[C@H]8OC8O[C@@H](C)[C@H](O)[C@@H](O)[C@H]8O)[C@@](C)(CO)C7CC[C@@]6(C)[C@]4(C)CC5)[C@H](O)[C@@H](O)[C@@H]3O)O[C@@H]2CO)[C@H](O)[C@H](O)[C@H]1O (some centres not stated)", "value": "0.993 (inactive)"}
{"molecule": "CC(=O)O[C@H]1CC[C@@]2(C)C(CC[C@]3(C)C2C(=O)C=C2C4[C@@H](C)[C@H](C)CC[C@]4(C(=O)O)CC[C@]23C)C1(C)C (some centres not stated)", "value": "1 (inactive)"}

---

- assay.explanation: chemical genetic growth profiling, strain panel (AID 1159580)
- condition.description: S. cerevisiae deletion strains, growth OD, locus YML016C, strain PPZ1, stronger effect = lower value
In all, about 5,500 compounds went through this assay and about 2,000 (36%) were called active. Roughly 18% stayed inconclusive and do not appear here. This is one part of the list.
Form field: normalized growth (one value per entry).

{"molecule": "C#C[C@]1(O)CCC2C3CCC4=CC(=O)CC[C@@H]4C3CC[C@@]21CC (some centres undefined)", "normalized growth": "0.989 (inactive)"}
{"molecule": "C#C[C@]1(OC(C)=O)CCC2C3CCC4=CC(=O)CC[C@@H]4C3CC[C@@]21C (some centres undefined)", "normalized growth": "0.963 (inactive)"}
{"molecule": "COC(=O)C[C@H]1C(C)(C)C2(O)OC34CC2C(=O)[C@]1(C)C3CC[C@]1(C)C4=CC(=O)O[C@H]1c1ccoc1 (some centres undefined)", "normalized growth": "1 (inactive)"}
{"molecule": "N#CC(O[C@@H]1O[C@H](CO[C@@H]2O[C@H](CO)[C@@H](O)[C@H](O)[C@H]2O)[C@@H](O)[C@H](O)[C@H]1O)c1ccccc1 (some centres undefined)", "normalized growth": "0.986 (inactive)"}

---

- assay.explanation: chemical genetic growth profiling, strain panel (AID 1159580);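 note: tested at 20 µM; growth read once vehicle control cultures reached saturation at 30 °C; 1 = growth at the plate median or of vehicle wells; lower values mean less growth of the strain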
- condition.description: S. cerevisiae deletion strains, growth OD, locus YNL071W, strain lat1, stronger effect = lower value
Hit rate of the full screen: of about 5,500 compounds, about 2,000 (36%) were called active. Another 18% or so got no clear call; they are omitted. This is one part of the list. Where a SMILES comes first, the peptide text is derived from it. Bridges are numbered along the chain shown (N, C = ends). [ ]: non-standard residue; d: D form. The star is where a group is joined. ξ: configuration not given here. ξDab(CH2SO3H) = NC(CCNCS(=O)(=O)O)C(=O)O; Heptanoyl(6-Me) = CC(C)CCCCC(=O)*; Dab = NCC[CH](N)C(=O)O
Form field: normalized growth (one value per entry).
measured.attribute: normalized growth

{"molecule": "O=C(CNC(=O)c1ccc(Cl)cc1)NO", "measured.attribute": "normalized growth", "value": 1.02}
{"molecule": "CC(=O)O[C@H]1CC[C@@]2(C)C(CC[C@]3(C)C2CC=C2C4CC(C)(C)CC[C@]4(C)CC[C@]23C)C1(C)C (stereo partly drawn)", "measured.attribute": "normalized growth", "value": 0.982}
{"molecule": "CC1(C)CC[C@]2(C(=O)O)CC[C@]3(C)C(=CCC4[C@@]5(C)CC[C@H](O)[C@@](C)(CO)C5CC[C@]43C)C2C1 (stereo partly drawn)", "measured.attribute": "normalized growth", "value": 1.02}
{"molecule": "C[C@]12CCC(=O)C=C1CCC1C2[C@@H](O)C[C@@]2(C)C1CC[C@]2(O)C(=O)CO (stereo partly drawn)", "measured.attribute": "normalized growth", "value": 1.01}
{"molecule": "CC1(C)CC(O)C2(C)CCC3(C)C(=CCC4C5(C)CCC(O)C(C)(CO)C5CCC43C)C2C1 (stereo not drawn)", "measured.attribute": "normalized growth", "value": 1.02}
{"molecule": "CC(=O)NCc1c(I)c(NC(C)=O)c(I)c(C(=O)O)c1I", "measured.attribute": "normalized growth", "value": 1}
{"molecule": "C/C=C1\\[C@H]2C=C(C)C[C@]1(N)c1ccc(=O)[nH]c1C2", "measured.attribute": "normalized growth", "value": 1.02}
{"molecule": "CCC(C)C1NC(=O)C(CCNCS(=O)(=O)O)NC(=O)C(NC(=O)C(CCNCS(=O)(=O)O)NC(=O)C(NC(=O)C(CCNCS(=O)(=O)O)NC(=O)CCCCC(C)C)C(C)O)CCNC(=O)C(C(C)O)NC(=O)C(CCNCS(=O)(=O)O)NC(=O)C(CCNCS(=O)(=O)O)NC(=O)C(C(C)CC)NC1=O (stereo not drawn) ({Heptanoyl(6-Me)}-[ξDab(CH2SO3H)]T[ξDab(CH2SO3H)][Dab][ξDab(CH2SO3H)]II[ξDab(CH2SO3H)][ξDab(CH2SO3H)]T; lactam 4-C; configuration not given here)", "measured.attribute": "normalized growth", "value": 0.981}

---

Form field: normalized growth (one value per entry).
- assay.explanation: chemical genetic growth profiling, strain panel (AID 1159580);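 note: tested at 20 µM; growth read once vehicle control cultures reached saturation at 30 °C; 1 = growth at the plate median or of vehicle wells; lower values mean less growth of the strain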
- condition.description: S. cerevisiae deletion strains, growth OD, locus YPR135W, strain CTF4, stronger effect = lower value
The campaign covered roughly 5,500 compounds. About 2,000 (36%) were called active. Not shown: some 18% with an inconclusive outcome. This is one part of the list.

{"compound": "O=C1ON=C(c2ccccc2)/C1=C/c1ccc(Cl)cc1", "normalized growth": 0.294}
{"compound": "O=C(Nc1ccc(Br)cc1Cl)C(Cl)(Cl)Cl", "normalized growth": 0.64}
{"compound": "CC(C)(C)c1nccc(-c2nn(-c3ccc(F)cc3)ccc2=O)n1", "normalized growth": 0.869}
{"compound": "O=C(CSCc1c(F)cccc1Cl)Nc1ccc(F)c(Cl)c1", "normalized growth": 0.441}
{"compound": "c1cc2c(cc1N=C1SCC3CCCCN13)OCO2 (stereo unspecified)", "normalized growth": 1.05}
{"compound": "CCOC(=O)c1nc(-c2ccccc2)sc1C(=O)OCC", "normalized growth": 0.741}
{"compound": "CCOC(=O)c1ccc2[nH]c(-c3ccccc3)cc(=O)c2c1", "normalized growth": 1.09}
{"compound": "CC(C)c1ccccc1NC(=S)N1CCN(c2ncc(C(F)(F)F)cc2Cl)CC1", "normalized growth": 1.17}
{"compound": "O=C(NC1Cc2ccccc2C1)c1cncc(Br)c1", "normalized growth": 0.836}
{"compound": "Cn1c(CSCC(=O)Nc2ccccc2)n[nH]c1=S", "normalized growth": 1.07}
{"compound": "O=C(COc1ccc2c(c1)OCO2)N1CCN(c2ncc(C(F)(F)F)cc2Cl)CC1", "normalized growth": 0.802}
{"compound": "Cc1c(Br)sc2ccc(Cl)cc12", "normalized growth": 0.953}
{"compound": "O=C(O/N=C\\c1ccc2c(c1)OCO2)c1ccccc1Br", "normalized growth": 0.591}
{"compound": "CCOC(=O)c1sc(-c2ccc(C)cc2)nc1O", "normalized growth": 0.368}
{"compound": "Cc1ccc2[nH]c3c(c2c1)CCCC3", "normalized growth": 0.477}
{"compound": "COc1cc(OC)nc(N)n1", "normalized growth": 1.06}

---

- assay.explanation: chemical genetic growth profiling, strain panel (AID 1159580);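 note: tested at 20 µM; growth read once vehicle control cultures reached saturation at 30 °C; 1 = growth at the plate median or of vehicle wells; lower values mean less growth of the strain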
- condition.description: S. cerevisiae deletion strains, growth OD, locus YDR069C, strain doa4, stronger effect = lower value
Among all 5,500 compounds or so, about 2,000 (36%) were called active. Another 18% or so got no clear call; they are omitted. The list shows a part of the results.

{"molecule": "N#CC(O[C@@H]1O[C@H](CO[C@@H]2O[C@H](CO)[C@@H](O)[C@H](O)[C@H]2O)[C@@H](O)[C@H](O)[C@H]1O)c1ccccc1 (stereo partly drawn)", "normalized growth": 0.975}
{"molecule": "O=C1C(O)=C(O)C(=O)C(O)=C1O", "normalized growth": 1.01}
{"molecule": "CC(C)CCCC1(C)C=Cc2c(O)c3c(c(CCC(C)C)c2O1)OC12C(CC4CC1C(C)(C)OC2(CCC(C)C(=O)O)C4O)C3=O (stereo not drawn)", "normalized growth": 0.988}
